These entries and their values trace back to the supplement of paper PMC10065799.

Test system: c-Abl (mouse);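 also: 11-residue human phosphosite peptides and single-mutation variants displayed on the E. coli surface, counted by deep sequencing, each peptide's frequency after selection divided by its frequency in the unselected input library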;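 also: frequency after pTyr selection over input frequency; kinase dosed for 20-30% of maximal phosphorylation in three min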
Assay: phosphorylation enrichment, bacterial display (enrichment ratio); higher = better substrate or ligand; peptides without Tyr show the background
phosphorylation enrichment values for the sequences below.
Reply briefly: the number, and no unit.

As a guide, the following entries are already answered.
RFLERDIYNRE [HLA-DPB1_Y57_Y57D]
0.787
IALSKYGRVKW [FGF6_Y186_R191W]
0.748
EYKDAYTFAAD [BRDT_Y335_K336T]
0.556
VTQEQYELFCE [CBL_Y368_YF]
3.12
LGKGSYAKVRS [TSSK2_Y23_K27R]
1.12

Param item: EFTAGYNVKFD [GPX4_Y123_A120T] ; param system: c-Abl (mouse); output phosphorylation enrichment: 0.635

Field phosphorylation enrichment (system: c-Abl (mouse)) for entry SLLTDCSPQLQ [OTC_Y345_Y345C] = 0.768
